assay: yeast display, Sf9 membrane polyspecificity reagent, FACS + sequencing; frameworks hold sequencing errors
observationType: polyreactivity (PSR sort gate)

Take a look at these entries with their results.
QVQLVESGGCLVQAGGSLRLSCAASGSTLGYYVMGWYRQAPGKERELFAAITGCGSTDYADSVKGRFTISRDNAKNTVYLQMNSLIPEDTAVYYCAAERTRTGQLFWWGPIYDYWGQGTQVTVSS: low polyreactivity
QVQLVESGGGLVQAGGSLRLSCAASGIIFYDYAMGWYRQAPGKERELVAAISRSGSSTYYADSVKGRFTISRDNAKNTVYLQMNSLKPEDTAVYYCASRFGDMGYWGQGTQVTVSS: high polyreactivity
QVQLVESGGGLDQAGGSLRLSCAASGRIFSPNAMGWYRQAPGKERELVAAISRIGGRTYYADSVKGRFTISRDNAKNTVYLQMNSLKPEDTGVFYCNVVATHTDFTYDFWGQGTQVTVSS: high polyreactivity
QVQLVESGGGLVQAGGSLRLSCAASGSTFYDYAMGWYRQAPGKERELVASIDSGDSTNYADSVKGRFTISRDNAKNTVYLQMNSLKPEDTAVYYCAARVYSVADYYYWGQGTQVTVSS: low polyreactivity

Please turn your attention to the following entry.
Problem: Which polyreactivity (PSR sort gate) reading was recorded for the sequence QVQLVESGGGLVQAGGSLRLSCAASGRTFADYVMGWYRQAPGKERELVAAITSSGGSTYYADSVKGRFTISRDNAKNTVYLQMNSLKPEDTAVYYCAAQQSPSVDYWGQGTQVTVSS ?
Solution: low polyreactivity

Reference source: the nanobody polyreactivity screen of Harvey et al. (2022)
